assay: in vivo; conditions: mouse, in vivo, iv, single dose, 7 days; Table 2; read-out: Toxicity LD50 (mouse)
Reported LD50 at 168 h values for a set of compounds

Look over these answered cases.
{"columns": ["molecule", "LD50 at 168 h"],
 "data": [
  ["CCCn1c(=O)c2c(ncn2CCCCC(C)(C)O)n(C)c1=O", "100 to 200 mg/kg"],
  ["CCOCn1cnc2c1c(=O)n(CCCCC(C)(C)O)c(=O)n2C", "150 to 300 mg/kg"]
]}

Endpoint output: LD50 at 168 h of CCCn1cnc2c1c(=O)n(CCCCC(C)(C)O)c(=O)n2CC . Value?
100 to 200 mg/kg

Consider the compound shown here: Cn1c(=O)c2c(ncn2CCCCC(C)(C)O)n(C)c1=O What is its recorded LD50 at 168 h?
100 to 200 mg/kg

* * *

Entries and their LD50 at 168 h
assay: in vivo; details: mouse, in vivo, iv, single dose, 7 days; Table 3; read-out: Toxicity LD50 (mouse)

The following compounds have reported results that may help.
{"columns": ["molecule", "LD50 at 168 h"],
 "data": [
  ["CCn1c(=O)n(CCCCC(C)(C)O)c(=O)c2c1ncn2C", "> 200 mg/kg"],
  ["CCCn1cnc2c1c(=O)n(CCCC(C)(C)O)c(=O)n2CC", "> 200 mg/kg"]
]}

Item under review: CCOCCOCCn1cnc2c1c(=O)n(CCCCC(C)(C)O)c(=O)n2CC . Reported LD50 at 168 h?
> 200 mg/kg

For COCn1cnc2c1c(=O)n(CCCCCC(C)(C)O)c(=O)n2C , what is its reported LD50 at 168 h?
> 200 mg/kg

So what does the record say about LD50 at 168 h for CCCn1cnc2c1c(=O)n(CCCCC(C)(C)O)c(=O)n2C ?
100 to 200 mg/kg

Which LD50 at 168 h reading was recorded for the compound CCn1c(=O)n(CCCCC(C)(C)O)c(=O)c2c1ncn2CCCOC ?
> 200 mg/kg

The measurements presented in this section are drawn from patent US4833146A.
